biological target: UniProt P31213; assay: Inhibition constant against recombinant human Steroid 5-alpha-reductase type 2 expressed in CHO cells; conditions: read-out: Ki app
Each item that follows carries a reported pKi.
Answer as the number alone; pKi is minus log10 of concentration in mol/L.

{"smiles_entry": "Cn1c(C(=O)O)cc2cc(OCc3ccccc3)ccc21", "system_under_test": "UniProt P31213", "obs_value": 6.51}
{"smiles_entry": "COc1cc2cc(C(=O)O)[nH]c2cc1OCc1ccccc1", "system_under_test": "UniProt P31213", "obs_value": 7.52}
{"smiles_entry": "O=C(O)c1cc2c(OCc3ccccc3)cccc2[nH]1", "system_under_test": "UniProt P31213", "obs_value": 6.26}

Problem: // pKi lookup, key: Cc1ccc(Cc2ccc(C(=O)c3ccc(C(=O)O)cc3)cc2)cc1
Result: 7.82

Problem: Any idea what pKi was measured for O=C(O)c1ccc(C(=O)c2ccc(C(=O)c3ccc4c(c3)OCO4)cc2)cc1 ?
Result: 6.92

Problem: Recorded pKi for COc1cc2cc(C(=O)O)n(C)c2cc1OCc1ccccc1 , please?
Result: 8.00

Problem: State the recorded pKi for this entry: O=C(O)c1ccc(C(=O)c2ccc(C(=O)c3ccc([N+](=O)[O-])cc3)cc2)cc1
Result: 7.00

Problem: May I ask what pKi has been recorded for O=C(O)c1ccc(C(=O)c2ccc(C(=O)Cc3ccccc3)cc2)cc1 ?
Result: 7.40

Problem: Need pKi, item O=C(O)c1ccc(-c2ccc(C(=O)Cc3ccccc3)cc2)cc1
Result: 7.22

Problem: # get_value(readout='pKi', item= O=C(O)c1ccc(C(=O)c2ccc(C(=O)c3ccc(C(F)(F)F)cc3)cc2)cc1 )
Result: 7.52

Problem: // query pKi value for entry O=C(O)c1ccc(C(=O)c2ccc(Cc3ccc(C(F)(F)F)cc3)cc2)cc1
Result: 7.52

---

molecular target: 3-oxo-5-alpha-steroid 4-dehydrogenase 2 (Homo sapiens, UniProt P31213); assay: Inhibition constant against recombinant human Steroid 5-alpha-reductase type 2 expressed in CHO cells; details: read-out: Ki app
Sequence (P31213 whole entry): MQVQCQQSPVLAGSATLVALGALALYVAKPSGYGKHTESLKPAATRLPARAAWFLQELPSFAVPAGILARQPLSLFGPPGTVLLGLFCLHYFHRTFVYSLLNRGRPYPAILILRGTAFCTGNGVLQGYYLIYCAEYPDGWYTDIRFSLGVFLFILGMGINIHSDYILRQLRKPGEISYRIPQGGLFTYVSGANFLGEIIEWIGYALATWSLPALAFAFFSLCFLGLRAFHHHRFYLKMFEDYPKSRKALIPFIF
Entries annotated with measured pKi
Note: pKi values are expressed as the negative base-10 logarithm of concentration in M.

Below, each entry is followed by its recorded pKi result.
{"smiles_entry": "O=C(O)c1ccc(C(=O)c2ccc(C(=O)c3ccccc3)cc2)cc1", "system_under_test": "3-oxo-5-alpha-steroid 4-dehydrogenase 2 (Homo sapiens, UniProt P31213)", "readout_kind": "pKi", "obs_value": 7.40}
{"smiles_entry": "O=C(O)c1ccc(C(=O)c2ccc(C(=O)c3ccc(Cl)cc3)cc2)cc1", "system_under_test": "3-oxo-5-alpha-steroid 4-dehydrogenase 2 (Homo sapiens, UniProt P31213)", "readout_kind": "pKi", "obs_value": 7.46}
{"smiles_entry": "O=C(O)c1ccc(C(=O)c2ccc(C(=O)c3cccc(C(F)(F)F)c3)cc2)cc1", "system_under_test": "3-oxo-5-alpha-steroid 4-dehydrogenase 2 (Homo sapiens, UniProt P31213)", "readout_kind": "pKi", "obs_value": 7.42}
{"smiles_entry": "O=C(O)c1cc2ccccc2[nH]1", "system_under_test": "3-oxo-5-alpha-steroid 4-dehydrogenase 2 (Homo sapiens, UniProt P31213)", "readout_kind": "pKi", "obs_value": 6.64}
{"smiles_entry": "Cc1ccc(C(=O)c2ccc(C(=O)c3ccc(C(=O)O)cc3)cc2)cc1", "system_under_test": "3-oxo-5-alpha-steroid 4-dehydrogenase 2 (Homo sapiens, UniProt P31213)", "readout_kind": "pKi", "obs_value": 8.00}

Next item in the queue.
Problem: Suppose we examine the compound O=C(O)c1ccc(C(=O)c2ccc(C(=O)C3CCCCC3)cc2)cc1 ; what pKi value has been reported?
Result: 7.52
